The origin of these recorded values is patent US20120253008A1.

Target: T1, human serum albumin (human, UniProt P02768 25-609)
T1 construct: also called HSA
Assay: SPR, BIAcore 3000, HSA on CM5 chip
Protocol: For this purpose, binding to HSA and CSA was assessed in BIAcore™ 3000, by injecting concentration series of the fusion proteins ranging from 2 μM to 200 nM on a CM5 chip coated with ˜3000 RU HSA or CSA. Coating of the chip (CM5) was performed by amine coupling using NHS/EDC for activation and ethanolamine for deactivation (Biacore amine coupling kit). HBS-EP was used as flow buffer at a rate of […]. 90 μl of sample was injected for 120 s.
Readings of koff for the listed binders
Record the value in s⁻¹, omitting the unit from your answer.

Study these solved cases before continuing.
- BINDER: "2D3-9GS-56E4-MycHis (other) EVQLVESGGSLVQPGGSLRLSCAASGFTFDDYAMSWVRQVPGKGLEWVSSINWSGTHTDYADSVKGRFTISRNNANNTLYLQMNSLKSEDTAVYYCAKNWRDAGTTWFEKSGSAGQGTQVTVSSGGGGSGGGSAAARYWDYDVFGGGTPVGGAAAEQKLISEEDLNGAAHHHHHH"
  UNITS: "s⁻¹"
  koff: 0.00497
- BINDER: "2D3-9GS-59F2-MycHis (other) EVQLVESGGSLVQPGGSLRLSCAASGFTFDDYAMSWVRQVPGKGLEWVSSINWSGTHTDYADSVKGRFTISRNNANNTLYLQMNSLKSEDTAVYYCAKNWRDAGTTWFEKSGSAGQGTQVTVSSGGGGSGGGSAAARYWDFDVFGGGTPVGGAAAEQKLISEEDLNGAAHHHHHH"
  UNITS: "s⁻¹"
  koff: 0.00351
- BINDER: "2D3-9GS-59H12-MycHis (other) EVQLVESGGSLVQPGGSLRLSCAASGFTFDDYAMSWVRQVPGKGLEWVSSINWSGTHTDYADSVKGRFTISRNNANNTLYLQMNSLKSEDTAVYYCAKNWRDAGTTWFEKSGSAGQGTQVTVSSGGGGSGGGSAAARSWDFDVFGGGTPVGGAAAEQKLISEEDLNGAAHHHHHH"
  UNITS: "s⁻¹"
  koff: 0.00304

Now let's try a different one.
Look up koff for this binder: 2D3-9GS-59C2-MycHis (other) EVQLVESGGSLVQPGGSLRLSCAASGFTFDDYAMSWVRQVPGKGLEWVSSINWSGTHTDYADSVKGRFTISRNNANNTLYLQMNSLKSEDTAVYYCAKNWRDAGTTWFEKSGSAGQGTQVTVSSGGGGSGGGSAAARDWDFDVFGGGTPVGGAAAEQKLISEEDLNGAAHHHHHH
0.00179
